Reference source for all entries: paper PMC10786891

# measurement-target: T1, EsCas13d, nuclease-dead (Eubacterium siraeum, UniProt B0MS50, R295A;H300A;R849A;H854A)
# T1 sequence: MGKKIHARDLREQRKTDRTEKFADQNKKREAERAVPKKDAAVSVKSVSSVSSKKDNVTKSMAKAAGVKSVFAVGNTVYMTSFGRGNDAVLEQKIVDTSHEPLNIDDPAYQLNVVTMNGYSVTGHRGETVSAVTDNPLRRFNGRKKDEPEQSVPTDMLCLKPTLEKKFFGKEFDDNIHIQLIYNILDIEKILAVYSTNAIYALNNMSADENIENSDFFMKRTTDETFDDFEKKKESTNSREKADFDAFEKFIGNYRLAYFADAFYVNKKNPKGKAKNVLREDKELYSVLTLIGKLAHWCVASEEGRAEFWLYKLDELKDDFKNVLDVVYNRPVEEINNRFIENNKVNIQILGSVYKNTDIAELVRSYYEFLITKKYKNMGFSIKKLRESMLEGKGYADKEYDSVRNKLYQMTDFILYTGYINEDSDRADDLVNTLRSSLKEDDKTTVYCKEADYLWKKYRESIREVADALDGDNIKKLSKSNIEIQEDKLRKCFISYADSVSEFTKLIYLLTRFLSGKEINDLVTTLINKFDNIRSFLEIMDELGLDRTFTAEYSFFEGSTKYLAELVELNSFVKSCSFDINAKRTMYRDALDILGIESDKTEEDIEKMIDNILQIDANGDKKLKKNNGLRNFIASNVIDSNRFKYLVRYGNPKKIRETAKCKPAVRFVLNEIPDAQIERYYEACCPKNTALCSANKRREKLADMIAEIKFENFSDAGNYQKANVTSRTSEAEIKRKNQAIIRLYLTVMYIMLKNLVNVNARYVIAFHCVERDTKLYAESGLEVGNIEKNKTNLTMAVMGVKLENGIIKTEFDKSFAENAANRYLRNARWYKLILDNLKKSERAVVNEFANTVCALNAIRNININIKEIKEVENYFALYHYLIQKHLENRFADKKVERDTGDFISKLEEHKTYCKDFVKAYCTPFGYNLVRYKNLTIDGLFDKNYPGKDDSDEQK
# assay: crRNA (strand 1, pre-loaded); Mg2+; 40 mM Tris-HCl pH 7.5, 150 mM NaCl, 6 mM MgCl2, 1 mM DTT, 0.1% Tween-20, 0.2 mg/ml BSA; 25 C; 10 min per concentration, then washed
# condition-label: tags: His6-TwinStrep-SUMO cleaved; N-terminal SNAP kept (SNAP-Surface 488); label: 3' end held by stalled T7 RNA polymerase
This listing pairs binders with measured Kd.
endpoint-label: Kd

>>> result("target 2 MT 5'PFS UAU 3'PFS CAU (mixed) RNA 1: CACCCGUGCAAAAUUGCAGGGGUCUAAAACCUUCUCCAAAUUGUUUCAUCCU RNA 2: GGGAAUGGAUCCACAUCUACGAAUUCUAUAGGAUGAAACAAUUUGGAGAAGCAUAGAUCGGAAGAGCACACGU")
"0.0241 µM"
>>> result("target 1 C4A,U8A (mixed) RNA 1: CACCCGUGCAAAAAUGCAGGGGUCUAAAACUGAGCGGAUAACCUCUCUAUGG RNA 2: GGGAAUGGAUCCACAUCUACGAAUUCGUACCAUAGAGAGGUUAACCGAUCACCGAGAUCGGAAGAGCACACGU")
"0.0253 µM"
>>> result("target 3 C6A,U7C (mixed) RNA 1: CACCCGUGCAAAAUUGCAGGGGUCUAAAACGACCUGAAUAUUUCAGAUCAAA RNA 2: GGGAAUGGAUCCACAUCUACGAAUUCGUUUUUGAUCUGAAAUAUCAAGGUCUGCAGAUCGGAAGAGCACACGU")
"0.069 µM"
>>> result("target 1 insA 3' of 5,insG 3' of 2 (mixed) RNA 1: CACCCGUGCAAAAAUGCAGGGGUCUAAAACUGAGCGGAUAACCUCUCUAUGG RNA 2: GGGAAUGGAUCCACAUCUACGAAUUCGUACCAUAGAGAGGUUAUCCGACUCGACCGAGAUCGGAAGAGCACACGU")
"0.0083 µM"
